Source: ChEMBL document CHEMBL1817648

Test system: Pseudomonas aeruginosa
procedure-details: Antibacterial activity against Pseudomonas aeruginosa 09-32 after 18 to 24 hrs by NCCLS M100-S11 two fold serial dilution method
Type: functional
recorded-metric: MIC (µg/mL)
Response body: numeric value in µg/mL, unit text excluded.

Worked examples follow.
# molecule, target-or-system, recorded-metric, unit-symbol, value
measured = [
    ("COC(=O)CN1CCN(c2c(F)cc3c(=O)c(C(=O)O)cn(C4CC4)c3c2OC)CC1C (stereo unspecified)", "Pseudomonas aeruginosa", "MIC", "µg/mL", 128),
    ("COc1c(N2CCN(CC#N)C(C)C2)c(F)cc2c(=O)c(C(=O)O)cn(C3CC3)c12 (stereo unspecified)", "Pseudomonas aeruginosa", "MIC", "µg/mL", 0.25),
    ("COc1c(N2CCN(C/C(C)=N/NC(=O)c3ccncc3)C(C)C2)c(F)cc2c(=O)c(C(=O)O)cn(C3CC3)c12 (stereo unspecified)", "Pseudomonas aeruginosa", "MIC", "µg/mL", 4),
]

Next item in the queue.
Lookup: Provide Pseudomonas aeruginosa MIC reading for COc1c(N2CCN(C/C(C)=N/NC(N)=O)C(C)C2)c(F)cc2c(=O)c(C(=O)O)cn(C3CC3)c12 (stereo unspecified) .
Found: 64
